Tested on: Staphylococcus aureus
Experiment: Antibacterial activity against methicillin-resistant Staphylococcus aureus ATCC 43300 assessed as growth inhibition at 32 ug/ml after 18 hrs by monochromator plate assay relative to control
Type: functional
Measured metric: inhibition at 32 µg/mL (%)
// units = %; emit number, no label

Use these answered entries as a reference point.
Cc1nc(-c2ccc(-c3ccccc3)cc2)sc1-c1cc(C(=O)Nc2cccc3ccccc23)n[nH]1 14.2
Cc1nc(-c2ccc(I)cc2)sc1-c1cc(C(=O)Nc2ccccc2)n[nH]1 19
Cc1nc(-c2ccc(-c3ccccc3)cc2)sc1-c1cc(C(=O)Nc2ccc(F)cc2)n[nH]1 15.1
CCOC(=O)c1cc(-c2sc(-c3ccc(-c4ccccc4)cc3)nc2C)[nH]n1 13.6

INPUT: Item under review: Cc1nc(-c2ccc(I)cc2)sc1-c1cc(C(=O)NC2CCCCC2)n[nH]1 . Reported inhibition at 32 µg/mL?
OUTPUT: 12.9

INPUT: Would you kindly repeat that for Cc1nc(-c2ccc(I)cc2)sc1-c1cc(C(=O)NN2CCOCC2)n[nH]1 ?
OUTPUT: 15.7

INPUT: Try this compound too: Cc1nc(-c2ccc(-c3ccccc3)cc2)sc1-c1cc(C(=O)NCC2CCCCC2)n[nH]1
OUTPUT: 4.1

INPUT: Next compound up: Cc1nc(-c2ccc(-c3ccccc3)cc2)sc1-c1cc(C(=O)NC2CCCCC2)n[nH]1
OUTPUT: 84.9

INPUT: For Cc1nc(-c2ccc(-c3cccc4ccccc34)cc2)sc1-c1cc(C(=O)NC2CCCCC2)n[nH]1 then?
OUTPUT: 19.4

---

System: Pseudomonas aeruginosa
Test: Antibacterial activity against Pseudomonas aeruginosa ATCC 27853 assessed as growth inhibition after 18 hrs by monochromator plate assay
Assay type: functional
Activity calls are given as the source filed them. No cut-off for these calls is given here.
Measured metric: MIC

Cc1nc(-c2ccc(I)cc2)sc1-c1cc(C(=O)Nc2ccccc2)n[nH]1 > 32 µg/mL
Cc1cccc(-c2ccc(-c3nc(C)c(-c4cc(C(=O)NC5CCCCC5)n[nH]4)s3)cc2)c1C > 32 µg/mL
Cc1nc(-c2ccc(-c3ccccc3)cc2)sc1-c1cc(C(=O)NC2CCCCC2)n[nH]1 > 32 µg/mL
COC(=O)c1cc(-c2sc(-c3ccc(I)cc3)nc2C)[nH]n1 > 32 µg/mL
Cc1nc(-c2ccc(-c3ccccc3)cc2)sc1-c1cc(C(=O)Nc2cccc3ccccc23)n[nH]1 > 32 µg/mL

INPUT: Quick check: MIC on Pseudomonas aeruginosa, item Cc1nc(-c2ccc(I)cc2)sc1-c1cc(C(=O)O)n[nH]1 ?
OUTPUT: inactive

INPUT: Same lookup for CCOC(=O)c1cc(-c2sc(-c3ccc(-c4ccccc4)cc3)nc2C)[nH]n1 , please.
OUTPUT: > 32 µg/mL

INPUT: Same for Cc1nc(-c2ccc(-c3ccccc3)cc2)sc1-c1cc(C(=O)Nc2ccc3c(c2)OCO3)n[nH]1
OUTPUT: > 32 µg/mL

INPUT: Try the molecule Cc1nc(-c2ccc(-c3ccccc3)cc2)sc1-c1cc(C(=O)NNc2ccccc2)n[nH]1
OUTPUT: inactive
